ASSAYED_SYSTEM: T1, cynomolgus galectin-10-His, WGS isoform (cynomolgus)
T1 construct: also called cynoGal10-WGS; not shown: His tag
T1 chain: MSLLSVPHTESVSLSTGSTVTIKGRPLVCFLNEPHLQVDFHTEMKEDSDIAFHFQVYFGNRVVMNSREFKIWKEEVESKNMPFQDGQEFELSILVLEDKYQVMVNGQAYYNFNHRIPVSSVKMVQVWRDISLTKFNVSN
PROTOCOL_DETAILS: SPR Biacore (summary table)
READOUT_TYPE: Kd (nM)
Express your answer in nM, writing the number without its unit.

input: Retrieve Kd measured for 10B02 scFv-human Fc (Fc fusion, also called 010B02; not shown: CH2-CH3 constant domains of human IgG1 (pUPEX50 scFv-Fc fusion vector)) scFv: QVQLVESGGGLVQPGGSLRVSCAASGFTFSYHYMNWVRQAPGKGLEWVSGISAGGGRTYYADSVKGRFTISRDNAKNTLYLQMNSLNAEDTALYYCARVHGITNDYWGQGTQVTVSSGGGGSGGGGSGGGGSQSALTQPPSVSGSPGKTVTISCAGTSSDVGYGNYVSWYQQLPGMAPKLLIYEVNKRASGITDRFSGSKSGNTAFLTISGLQSEDEADYYCASYRNSNNWVFGGGTHLTVL and print it.
output: 1
